Molecular target: menin/MLL (terbium chelate-labeled menin, FITC-MBM1 peptide) (Homo sapiens, UniProt O00255, T541A)
Construct: Menin (a.a 1-610-6xhis tag)
Sequence (O00255 with tags, fused parts or gaps T541A): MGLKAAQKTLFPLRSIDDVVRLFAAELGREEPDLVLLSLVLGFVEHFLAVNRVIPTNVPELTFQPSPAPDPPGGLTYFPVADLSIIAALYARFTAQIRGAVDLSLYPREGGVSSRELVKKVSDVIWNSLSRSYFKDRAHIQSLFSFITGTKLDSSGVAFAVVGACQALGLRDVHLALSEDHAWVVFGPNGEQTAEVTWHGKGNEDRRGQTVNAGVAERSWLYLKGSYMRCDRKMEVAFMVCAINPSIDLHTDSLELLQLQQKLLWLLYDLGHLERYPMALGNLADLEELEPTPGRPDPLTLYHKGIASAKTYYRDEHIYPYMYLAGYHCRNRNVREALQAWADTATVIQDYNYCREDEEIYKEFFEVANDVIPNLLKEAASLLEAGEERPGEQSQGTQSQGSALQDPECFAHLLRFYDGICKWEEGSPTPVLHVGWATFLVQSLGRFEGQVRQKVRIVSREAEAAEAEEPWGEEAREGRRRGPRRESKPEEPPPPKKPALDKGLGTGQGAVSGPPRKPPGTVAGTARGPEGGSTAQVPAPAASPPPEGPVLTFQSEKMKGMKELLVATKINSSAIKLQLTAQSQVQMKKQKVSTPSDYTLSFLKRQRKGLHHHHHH
Assay: Menin/MLL homogenous time-resolved fluorescence (HTRF) assay
Conditions: 30 min incubation
experimental.endpoint: IC50 (nM)
Dear colleague, please return just the value in nM, with no unit written.

{"compound": "CO[C@H]1CCN([C@H]2C[C@H](C(C(C)C)N3CC4(CCN(c5ncnnc5Oc5ccc(F)cc5-c5nnccc5C5CC5)C4)C3)C2)C1 (single isomer, unassigned)", "IC50, nM": 0.7}

Output measured IC50 for this item: CC(C)[C@@H]([C@H]1C[C@]2(COC(=O)N2)C1)N1CC2(CCN(c3ncnnc3Oc3ccc(F)cc3-c3nnccc3C3CC3)C2)C1 (single isomer, unassigned) 117

Output measured IC50 for this item: CC(=O)N[C@H]1C[C@@H]([C@@H](C(C)C)N2CC3(CCN(c4ncnnc4Oc4ccc(F)cc4-c4cnc(C#N)nc4C4CC4)C3)C2)C1 (single isomer, unassigned) 0.2

Output measured IC50 for this item: CC(C)[C@@H]([C@H]1C[C@@H](N2CCC3(CCO3)CC2)C1)N1CC2(CCN(c3ncnnc3Oc3ccc(F)cc3-c3nnccc3C3CC3)C2)C1 (single isomer, unassigned) 0.2

Output measured IC50 for this item: COCCN(C)[C@H]1C[C@@H]([C@@H](C(C)C)N2CC3(CCN(c4ncnnc4Oc4ccc(F)cc4-c4cncnc4C4CC4)C3)C2)C1 (single isomer, unassigned) 0.2

====

Molecular target: menin/MLL (terbium chelate-labeled menin, FITC-MBM1 peptide) (Homo sapiens, UniProt O00255, T541A)
Construct: Menin (a.a 1-610-6xhis tag)
Assay: Menin/MLL homogenous time-resolved fluorescence (HTRF) assay
Details: 30 min incubation
experimental.endpoint: pIC50
Keep it numeric: pIC50 is minus log10 of the concentration in mol/L.

{"molecule": "CC(C)[C@@H]([C@H]1C[C@@H](N2C[C@H]3COC[C@H]3C2)C1)N1CC2(CCN(c3ncnnc3Oc3ccc(F)cc3-c3cncnc3C3CC3)C2)C1 (single isomer, unassigned)", "pIC50": 8.80}

Next molecule, please.
Output measured pIC50 for this item: CC(=O)N1CCCC12CN([C@H]1C[C@@H]([C@@H](C(C)C)N3CC4(CCN(c5ncnnc5Oc5ccc(F)cc5-c5cncnc5C5CC5)C4)C3)C1)C2 (single isomer, unassigned) 10.00

====

Tested on: KO-52 cells
Experiment: Proliferation assay, spheroid-like growth, KO-52 (MLL wildtype control cell line)
Format: cell-based, human
Settings: Homo sapiens, 192 h, KO-52 control cells, 8 days, confluence as measure of spheroid size; read-out: spheroid assay_OneTime KO-52 IC50
Reported pIC50 values for a set of compounds
Keep it numeric: pIC50 is minus log10 of the concentration in mol/L.

Some entries whose results are on file:
{"compound": "CC(C)[C@H]([C@H]1C[C@@H](NC(=O)CCN(C)C)C1)N1CC2(CCN(c3ncnnc3Oc3ccc(F)cc3-c3cncnc3C3CC3)C2)C1 (single isomer, unassigned)", "target.or.test.system": "KO-52 cells", "pIC50": 4.97}
{"compound": "CC(C)[C@H](C1CCN(CC2(O)CC2)CC1)N1CC2(CCN(c3ncnnc3Oc3ccc(F)cc3-c3cncnc3C3CC3)C2)C1 (single isomer, unassigned)", "target.or.test.system": "KO-52 cells", "pIC50": 5.11}
{"compound": "CC(C)[C@H]([C@H]1C[C@@H](NC(=O)C2CC2)C1)N1CC2(CCN(c3ncnnc3Oc3ccc(F)cc3-c3nnccc3C3CC3)C2)C1 (single isomer, unassigned)", "target.or.test.system": "KO-52 cells", "pIC50": 4.92}
{"compound": "CC(C)[C@@H]([C@H]1C[C@@H](NC2CCOCC2)C1)N1CC2(CCN(c3ncnnc3Oc3ccc(F)cc3-c3cncnc3C3CC3)C2)C1 (single isomer, unassigned)", "target.or.test.system": "KO-52 cells", "pIC50": 5.00}
{"compound": "CC(C)C([C@H]1C[C@@H](N2CCCCC2)C1)N1CC2(CCN(c3ncnnc3Oc3ccc(F)cc3-c3cncnc3C3CC3)C2)C1 (some centres unmarked)", "target.or.test.system": "KO-52 cells", "pIC50": 6.00}

Identify measured pIC50 obtained with KO-52 cells for CNC(=O)c1cnc(N[C@H]2C[C@@H]([C@@H](C(C)C)N3CC4(CCN(c5ncnnc5Oc5ccc(F)cc5-c5cncnc5C5CC5)C4)C3)C2)s1 (single isomer, unassigned) . 5.33

Identify measured pIC50 obtained with KO-52 cells for CC(C)[C@@H]([C@H]1C[C@@H](N2CC[C@](C)(O)C2)C1)N1CC2(CCN(c3ncnnc3Oc3ccc(F)cc3-c3ncncc3C3CC3)C2)C1 (single isomer, unassigned) . 5.70
